- Subject of test: RdRp of the influenza virus (replicon activity) (Influenza A virus, UniProt P03431)
- Assay comment: Influenza virus RdRp replicon reporter (Luc) assay in transduced 293T cells
- Format: cell-based, Influenza A/PR/8/34 (H1N1)
- Protocol conditions: Pralatrexate concentration 5 μM; read-out: T-705 50% inhibitory concentration
pIC50: −log10 of the molar value.
Quantity kind: pIC50

Molecule | Quantity kind | Measurement
NC(=O)c1nc(F)cnc1O [T-705, 6-Fluoro-3-hydroxy-2-pyrazinecarboxamide] | pIC50 | 4.60

###

- Subject of test: RdRp of the influenza virus (replicon activity) (Influenza A virus, UniProt P03431)
- Assay comment: Influenza virus RdRp replicon reporter (Luc) assay in transduced 293T cells
- Assay type: cell-based, Influenza A/PR/8/34 (H1N1)
- Protocol conditions: HEK-293T, T-705 10 μM; antimetabolite 10.0 μM; read-out: Replicon inhibiting percentage
Quantity kind: inhibition at 10 µM (%)

Molecule | Quantity kind | Value units | Measurement
C#CCC(Cc1cnc2nc(N)nc(N)c2n1)c1ccc(C(=O)N[C@@H](CCC(=O)O)C(=O)O)cc1 (some centres unmarked) [Pralatrexate, pralatrexate] | inhibition at 10 µM | % | 35
Sc1ncnc2nc[nH]c12 | inhibition at 10 µM | % | 38
CN(Cc1cnc2nc(N)nc(N)c2n1)c1ccc(C(=O)N[C@@H](CCC(=O)O)C(=O)O)cc1 [Methotrexate, methotrexate] | inhibition at 10 µM | % | 37
Cn1cnc([N+](=O)[O-])c1Sc1ncnc2nc[nH]c12 | inhibition at 10 µM | % | 26
Nc1nc2nc[nH]c2c(=S)[nH]1 | inhibition at 10 µM | % | 23

###

- Test system: influenza virus (PR/8(H1N1))
- Assay comment: microbe, parasite or virus in culture
- Format: cell-based
- Protocol conditions: unidentified influenza virus, MDCK, read-out: T-705 50% concentration (50% inhibitory concentration of T-705), 6-Mercaptopurine concentration 0 μM; MDCK cells
pIC50: −log10 of the molar value.

Molecule | pIC50
NC(=O)c1nc(F)cnc1O [T-705, 6-Fluoro-3-hydroxy-2-pyrazinecarboxamide] | 5.71

###

- Subject of test: RdRp of the influenza virus (replicon activity) (Influenza A virus)
- Assay comment: Influenza virus RdRp replicon reporter (Luc) assay in transduced 293T cells
- Type: cell-based, Influenza A/PR/8/34 (H1N1)
- Protocol conditions: 6-Mercaptopurine concentration 0.03 μM; read-out: T-705 50% inhibitory concentration

Molecule | IC50
NC(=O)c1nc(F)cnc1O [T-705, 6-Fluoro-3-hydroxy-2-pyrazinecarboxamide] | 303 µM

###

- Subject of test: RdRp of the influenza virus (replicon activity) (Influenza A virus, UniProt P03431)
- Assay comment: Influenza virus RdRp replicon reporter (Luc) assay in transduced 293T cells
- Type: cell-based, Influenza A/PR/8/34 (H1N1)
- Protocol conditions: T-705 0 μM; antimetabolite 10.0 μM
Lab note: compare Replicon inhibiting percentage against 10%. Equal or greater, write met. Smaller, write not met.

Compound | Answer label
C#CCC(Cc1cnc2nc(N)nc(N)c2n1)c1ccc(C(=O)N[C@@H](CCC(=O)O)C(=O)O)cc1 (some centres unmarked) [Pralatrexate, pralatrexate] | met
Cn1cnc([N+](=O)[O-])c1Sc1ncnc2nc[nH]c12 | not met
Sc1ncnc2nc[nH]c12 | not met
Nc1nc2nc[nH]c2c(=S)[nH]1 | met
CN(Cc1cnc2nc(N)nc(N)c2n1)c1ccc(C(=O)N[C@@H](CCC(=O)O)C(=O)O)cc1 [Methotrexate, methotrexate] | met
